Biological target: hERG potassium channel (Homo sapiens)
Sequence (Q12809 whole entry): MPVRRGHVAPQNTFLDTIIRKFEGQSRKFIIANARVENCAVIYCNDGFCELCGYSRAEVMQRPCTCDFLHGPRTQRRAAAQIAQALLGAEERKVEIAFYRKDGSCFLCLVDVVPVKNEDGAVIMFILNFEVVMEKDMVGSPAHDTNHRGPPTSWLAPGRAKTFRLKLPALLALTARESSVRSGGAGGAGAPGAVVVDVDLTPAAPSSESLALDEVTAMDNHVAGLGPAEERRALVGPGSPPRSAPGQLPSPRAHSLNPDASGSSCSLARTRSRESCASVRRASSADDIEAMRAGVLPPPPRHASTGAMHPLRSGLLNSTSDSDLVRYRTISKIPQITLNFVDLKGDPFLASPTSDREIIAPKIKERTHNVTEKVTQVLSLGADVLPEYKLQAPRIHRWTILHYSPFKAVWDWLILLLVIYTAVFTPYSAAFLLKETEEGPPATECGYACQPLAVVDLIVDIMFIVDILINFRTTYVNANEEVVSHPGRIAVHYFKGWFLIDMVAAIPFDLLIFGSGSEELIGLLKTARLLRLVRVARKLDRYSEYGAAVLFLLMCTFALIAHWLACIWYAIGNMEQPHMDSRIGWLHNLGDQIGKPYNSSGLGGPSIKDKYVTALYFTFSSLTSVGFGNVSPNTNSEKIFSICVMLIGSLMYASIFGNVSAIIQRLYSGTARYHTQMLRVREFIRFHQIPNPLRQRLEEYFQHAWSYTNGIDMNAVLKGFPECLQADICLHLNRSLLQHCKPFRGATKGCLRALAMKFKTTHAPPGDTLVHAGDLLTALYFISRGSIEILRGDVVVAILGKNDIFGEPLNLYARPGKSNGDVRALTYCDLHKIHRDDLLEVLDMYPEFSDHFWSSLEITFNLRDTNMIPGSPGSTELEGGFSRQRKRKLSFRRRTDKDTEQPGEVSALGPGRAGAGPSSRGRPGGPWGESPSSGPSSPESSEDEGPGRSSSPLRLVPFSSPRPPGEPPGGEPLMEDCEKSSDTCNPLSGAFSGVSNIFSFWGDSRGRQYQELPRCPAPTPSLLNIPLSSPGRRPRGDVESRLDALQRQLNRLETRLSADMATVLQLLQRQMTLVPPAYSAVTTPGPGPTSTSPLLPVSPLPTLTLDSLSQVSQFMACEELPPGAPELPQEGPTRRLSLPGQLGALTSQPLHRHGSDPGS
Assay: in vitro
Settings: human
Recorded inhibition at 10 µM by entry
Give the value, in units of %, as a plain number.

input: Quickly give me recorded inhibition at 10 µM for CC[C@H]1OC(=O)[C@H](C)[C@@H](O[C@H]2C[C@@](C)(OC)[C@@H](O)[C@H](C)O2)[C@H](C)[C@@H](O[C@@H]2O[C@H](C)C[C@H](N(C)CC(C)C)[C@H]2O)C(C)(O)C[C@@H](C)C[C@H](C)[C@@H](O)[C@]1(C)O (stereo partly drawn) [Compound I-d]
output: 33.1

***
input: Quickly give me recorded inhibition at 10 µM for CC[C@H]1OC(=O)[C@H](C)[C@@H](O[C@H]2C[C@@](C)(OC)[C@@H](O)[C@H](C)O2)[C@H](C)[C@@H](O[C@@H]2O[C@H](C)C[C@H](N(C)C(C)C)[C@H]2O)C(C)(O)C[C@@H](C)C[C@H](C)[C@@H](O)[C@]1(C)O (stereo partly drawn) [Compound I-b]
output: 74

input: Quickly give me recorded inhibition at 10 µM for CCC(C)N(C)[C@H]1C[C@@H](C)O[C@@H](O[C@@H]2[C@@H](C)[C@H](O[C@H]3C[C@@](C)(OC)[C@@H](O)[C@H](C)O3)[C@@H](C)C(=O)O[C@H](CC)[C@@](C)(O)[C@H](O)[C@@H](C)C[C@H](C)CC2(C)O)[C@@H]1O (stereo partly drawn) [Compound I-c]
output: 26.5
